The following are reported pIC50 results, target or system SIK2 (Homo sapiens, UniProt Q9H0K1).
Keep in mind that pIC50 stands for -log10 of concentration in molar terms.

Prompt line: Please report the recorded pIC50 for Cc1ccc(Nc2ccc3c(c2)ncn3-c2ccc(C(C)O)c(-c3ccoc3C#N)n2)nn1 (stereo not shown) .
Response line: 6.85

Prompt line: How about Cc1ccc(Nc2ccc3c(c2)ncn3-c2ccc(C(C)O)c(-c3ccc(O)cc3C#N)n2)nn1 (stereo not shown) ?
Response line: 6.81

Prompt line: Also need Cc1cc(C#N)nn1-c1nc(-n2cnc3ccc(N4CC[C@H]5CNC(=O)[C@H]54)cc32)ccc1C(C)O (stereo partly shown) , thanks.
Response line: 7.66

Prompt line: What do we get for Cc1ccc(Nc2ccc3c(c2)ncn3-c2ccc(C(C)O)c(-n3nc(C)cc3C#N)n2)nn1 (stereo not shown) ?
Response line: 7.98

Prompt line: Now consider Cc1cc(C#N)nn1-c1nc(-n2cnc3cc(Nc4ccc(C(F)F)nn4)ccc32)ccc1C(C)O (stereo not shown) and answer again.
Response line: 9.05

Prompt line: And the next one, Cc1ccc(Nc2ccc3c(c2)ncn3-c2ccc(C(C)O)c(N3CCOC(C(F)F)C3)n2)nn1 (stereo not shown) ?
Response line: 7.31

Prompt line: Record: Cc1ccc(Nc2ccc3c(c2)ncn3-c2ccc(C(C)O)c(-c3cnn(CC4CC4)c3C)n2)nn1 (stereo not shown)
Response line: 8.62

---

Target: SIK2 (Homo sapiens)
property: pIC50
Schema: pIC50 number; meaning minus log10 of the concentration expressed in molar units.

Prompt line: Which pIC50 is listed for Cc1ccc(Nc2ccc3c(c2)ncn3-c2ccc(C(C)O)c(-c3nn(C(F)F)cc3C)n2)nn1 (stereo not shown) [Example 363] ?
Response line: 8.92

Continuing:
Prompt line: Request the reported pIC50 associated with COCCOc1ccc(Nc2ccc3c(c2)ncn3-c2ccc(C(C)O)c(-n3nc(C#N)cc3C)n2)nn1 (stereo not shown) [Example 193]
Response line: 8.49

Prompt line: // same read-out, input: Cc1ccc(Nc2ccc3c(c2)ncn3-c2nc(-n3ccc(C#N)n3)c(C(C)O)cc2Cl)nn1 (stereo not shown) [Example 239]
Response line: 5.86

Prompt line: Similarly, Cc1ccc(Nc2ccc3c(c2)ncn3-c2ccc(C(C)O)c(N3CC4CC3CC4(F)F)n2)nn1 (stereo not shown) [Example 322] ?
Response line: 7.79

---

Target: SIK3 (Homo sapiens)
Reported pIC50 values follow for various molecules
Scale explanation: pIC50 corresponds to minus log10 of a concentration expressed in moles per litre.

Solved entries (count: 3):
Prompt line: Would you mind telling me what pIC50 value was observed for COc1cc(C)n(-c2nc(-n3cnc4cc(Nc5ccc(C)nn5)ccc43)ccc2C(C)O)n1 (stereo not shown) [Example 214, formic acid] ?
Response line: 8.46

Prompt line: Also need Cc1cc(C#N)nn1-c1nc(-n2cnc3cc(-c4cnc(N5CCCC5=O)o4)ccc32)ccc1C(C)O (stereo not shown) [Example 392] , thanks.
Response line: 8.35

Prompt line: Check Cc1ccc(Nc2ccc3c(c2)ncn3-c2ccc(C(C)O)c(-n3nc(C(F)F)cc3C(F)F)n2)nn1 (stereo not shown) [Example 248] too.
Response line: 9.15

Alright, here's another molecule for you.
Prompt line: Which pIC50 value is on record for Cc1nnc(Nc2cc3ncn(-c4ccc(C(C)O)c(-n5nc(C#N)cc5C)n4)c3cc2F)s1 (stereo not shown) [Example 385] ?
Response line: 8.60

---

Molecular target: SIK2 (Homo sapiens, UniProt Q9H0K1)
Sequence (Q9H0K1 whole entry): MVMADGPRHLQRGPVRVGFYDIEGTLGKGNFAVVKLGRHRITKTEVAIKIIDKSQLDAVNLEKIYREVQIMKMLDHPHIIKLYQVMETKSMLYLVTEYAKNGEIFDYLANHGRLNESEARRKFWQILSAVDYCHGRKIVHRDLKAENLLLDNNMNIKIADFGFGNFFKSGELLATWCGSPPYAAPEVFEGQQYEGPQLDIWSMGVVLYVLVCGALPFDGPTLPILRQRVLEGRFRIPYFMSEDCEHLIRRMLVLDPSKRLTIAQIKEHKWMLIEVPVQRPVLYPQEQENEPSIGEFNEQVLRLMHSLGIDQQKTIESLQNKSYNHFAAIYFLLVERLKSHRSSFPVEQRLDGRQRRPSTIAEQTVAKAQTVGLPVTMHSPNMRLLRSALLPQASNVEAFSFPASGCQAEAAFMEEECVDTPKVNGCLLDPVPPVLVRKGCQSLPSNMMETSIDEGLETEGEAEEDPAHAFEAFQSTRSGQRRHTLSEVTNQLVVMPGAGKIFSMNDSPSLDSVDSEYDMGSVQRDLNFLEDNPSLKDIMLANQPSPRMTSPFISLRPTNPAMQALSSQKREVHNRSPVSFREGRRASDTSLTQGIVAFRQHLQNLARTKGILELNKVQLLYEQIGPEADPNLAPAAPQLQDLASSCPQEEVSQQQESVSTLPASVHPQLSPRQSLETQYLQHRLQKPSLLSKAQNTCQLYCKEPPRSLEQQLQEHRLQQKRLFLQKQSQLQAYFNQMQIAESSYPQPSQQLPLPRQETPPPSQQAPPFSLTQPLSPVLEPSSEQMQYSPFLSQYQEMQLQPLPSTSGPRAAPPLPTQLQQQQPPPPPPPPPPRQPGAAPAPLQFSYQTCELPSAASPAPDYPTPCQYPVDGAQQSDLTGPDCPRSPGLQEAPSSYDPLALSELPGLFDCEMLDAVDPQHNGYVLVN
Experiment: Enzymatic activity assay SIK2, RapidFire mass spectrometry (phosphorylation of CHK-peptide)
Type: biochemical
Conditions: RapidFire MS, inhibition of SIK2; read-out: SIK2 RF IC50
property: IC50 (nM)
Answer in nM, number only, no unit symbol.

Below, 5 compounds whose answers are already recorded.
Prompt line: Query for SIK2 (Homo sapiens, UniProt Q9H0K1): what IC50 does the record show for Cc1cc(C(F)F)nn1-c1nc(-n2cnc3cc(Nc4ccc(Cl)nn4)c(F)cc32)ccc1C(C)O (stereo not shown) [Example 372] ?
Response line: 8.5

Prompt line: And for Cc1ccc(Nc2ccc3c(c2)ncn3-c2ccc(C(C)O)c(-c3ccnn3C3CC3(F)F)n2)nn1 (stereo not shown) [Example 227, formic acid] ?
Response line: 225

Prompt line: Again, but for Cc1cc(C(F)F)nn1-c1nc(-n2cnc3cc(F)c(Nc4ccc(F)c(F)c4F)cc32)ccc1C(C)O (stereo not shown) [Example 364]
Response line: 2.9

Prompt line: Quick one: Cc1cc(C#N)nn1-c1nc(-n2cnc3cc(Nc4ccnnc4)ccc32)ccc1C(C)O (stereo not shown) [Example 87]
Response line: 9.6

Prompt line: What about this compound? COc1cc2ncn(-c3ccc([C@H](C)O)c(-c4cccc(C#N)c4)n3)c2cc1OC [Example 37]
Response line: 4.9

More entries:
Prompt line: Write down the reported IC50 of Cc1ccc(Nc2ccc3c(c2)ncn3-c2ccc(C(C)O)c(-c3cncnc3NC3CC3)n2)nn1 (stereo not shown) [Example 163] , test system: SIK2 (Homo sapiens, UniProt Q9H0K1).
Response line: 964

Prompt line: Param item: COCC(O)c1ccc(-n2cnc3ccc(Nc4ccc(C)nn4)cc32)nc1-n1nc(C#N)cc1C (stereo not shown) [Example 235]
Response line: 245

Prompt line: Also Cc1cc(C#N)nn1-c1nc(-n2cnc3ccc(CN4CCCCC4=O)cc32)ccc1C(C)O (stereo not shown) [Example 215] , if possible.
Response line: 371

Prompt line: Let us now turn to Cc1ccc(Nc2ccc3c(c2)ncn3-c2ccc(C(C)O)c(-c3cn(CC4CCC4)nc3C)n2)nn1 (stereo not shown) [Example 274]
Response line: 1.2

Prompt line: COC(C)Cn1cc(-c2nc(-n3cnc4cc(Nc5ccc(C)nn5)ccc43)ccc2C(C)O)c(C)n1 (stereo not shown) [Example 278] ?
Response line: 2

Prompt line: Next compound: COCCn1cc(-c2nc(-n3cnc4cc(Nc5ccc(C)nn5)ccc43)ccc2C(C)O)c(C)n1 (stereo not shown) [Example 265, formic acid]
Response line: 1.6

Prompt line: Would you kindly repeat that for Cc1cc(C#N)nn1-c1nc(-n2cnc3cc(NC4CCN(C)C(=O)C4)ccc32)ccc1C(C)O (stereo not shown) [Example 155] ?
Response line: 90.2

Prompt line: Also, COc1cc2ncn(-c3ccc(CO)c(N4CCCC4)n3)c2cc1OC [Example 27] please.
Response line: 473

Prompt line: Note, next up: COc1cc2ncn(-c3ccc(C(C)O)c(-c4ccc(F)cc4OC)n3)c2cc1OC (stereo not shown) [Example 17]
Response line: 155

Prompt line: Param item: Cc1ccc(Nc2ccc3c(c2)ncn3-c2ccc(C(C)O)c(-c3cc(C(F)(F)F)nn3C)n2)nn1 (stereo not shown) [Example 122]
Response line: 33

Prompt line: Do the same for Cc1ccc(Nc2ccc3c(c2)ncn3-c2ccc(C(C)O)c(-n3ccc(C#N)n3)n2)nn1 (stereo not shown) [Example 115] please
Response line: 3.9

Prompt line: Then this compound: Cc1ncc(Nc2ccc3c(c2)ncn3-c2ccc(C(C)O)c(-n3nc(C#N)cc3C)n2)cn1 (stereo not shown) [Example 86]
Response line: 6

Prompt line: Please answer likewise for Cc1ccc(Nc2ccc3c(c2)ncn3-c2ccc(C(C)O)c(-n3nc(C#N)cc3C)n2)cn1 (stereo not shown) [Example 81]
Response line: 2.3

---

Target: UniProtKB Q9H0K1
property: pIC50
Formally, pIC50 is defined as -log10 of the concentration c, with c in mol/L.

Prompt line: Given Cc1ccc(Nc2ccc3c(c2)ncn3-c2ccc(C(C)O)c(-c3cccnc3-c3cn[nH]c3)n2)nn1 (stereo not shown) , state its recorded pIC50.
Response line: 5.91

Prompt line: Then what about the compound Cc1cc(C#N)nn1-c1nc(-n2cnc3cc(-c4cnc(N5CCCC5=O)o4)ccc32)ccc1C(C)O (stereo not shown) ?
Response line: 8.70

Prompt line: Another compound: Cc1cc(C#N)nn1-c1nc(-n2cnc3cc(N4CC[C@H](O)C4)ccc32)ccc1C(C)O (stereo partly shown)
Response line: 7.94

Kindly consider the entry below.
Prompt line: Which pIC50 is listed for `Cc1ccc(Nc2cc3ncn(-c4ccc([C@@H](C)O)c(-n5nc(C#N)cc5C)n4)c3cc2F)nn1` ?
Response line: 7.30

---

Known pIC50 of a selection of compounds
Target: SIK3 (Homo sapiens, UniProt Q9Y2K2)
Sequence (Q9Y2K2 whole entry): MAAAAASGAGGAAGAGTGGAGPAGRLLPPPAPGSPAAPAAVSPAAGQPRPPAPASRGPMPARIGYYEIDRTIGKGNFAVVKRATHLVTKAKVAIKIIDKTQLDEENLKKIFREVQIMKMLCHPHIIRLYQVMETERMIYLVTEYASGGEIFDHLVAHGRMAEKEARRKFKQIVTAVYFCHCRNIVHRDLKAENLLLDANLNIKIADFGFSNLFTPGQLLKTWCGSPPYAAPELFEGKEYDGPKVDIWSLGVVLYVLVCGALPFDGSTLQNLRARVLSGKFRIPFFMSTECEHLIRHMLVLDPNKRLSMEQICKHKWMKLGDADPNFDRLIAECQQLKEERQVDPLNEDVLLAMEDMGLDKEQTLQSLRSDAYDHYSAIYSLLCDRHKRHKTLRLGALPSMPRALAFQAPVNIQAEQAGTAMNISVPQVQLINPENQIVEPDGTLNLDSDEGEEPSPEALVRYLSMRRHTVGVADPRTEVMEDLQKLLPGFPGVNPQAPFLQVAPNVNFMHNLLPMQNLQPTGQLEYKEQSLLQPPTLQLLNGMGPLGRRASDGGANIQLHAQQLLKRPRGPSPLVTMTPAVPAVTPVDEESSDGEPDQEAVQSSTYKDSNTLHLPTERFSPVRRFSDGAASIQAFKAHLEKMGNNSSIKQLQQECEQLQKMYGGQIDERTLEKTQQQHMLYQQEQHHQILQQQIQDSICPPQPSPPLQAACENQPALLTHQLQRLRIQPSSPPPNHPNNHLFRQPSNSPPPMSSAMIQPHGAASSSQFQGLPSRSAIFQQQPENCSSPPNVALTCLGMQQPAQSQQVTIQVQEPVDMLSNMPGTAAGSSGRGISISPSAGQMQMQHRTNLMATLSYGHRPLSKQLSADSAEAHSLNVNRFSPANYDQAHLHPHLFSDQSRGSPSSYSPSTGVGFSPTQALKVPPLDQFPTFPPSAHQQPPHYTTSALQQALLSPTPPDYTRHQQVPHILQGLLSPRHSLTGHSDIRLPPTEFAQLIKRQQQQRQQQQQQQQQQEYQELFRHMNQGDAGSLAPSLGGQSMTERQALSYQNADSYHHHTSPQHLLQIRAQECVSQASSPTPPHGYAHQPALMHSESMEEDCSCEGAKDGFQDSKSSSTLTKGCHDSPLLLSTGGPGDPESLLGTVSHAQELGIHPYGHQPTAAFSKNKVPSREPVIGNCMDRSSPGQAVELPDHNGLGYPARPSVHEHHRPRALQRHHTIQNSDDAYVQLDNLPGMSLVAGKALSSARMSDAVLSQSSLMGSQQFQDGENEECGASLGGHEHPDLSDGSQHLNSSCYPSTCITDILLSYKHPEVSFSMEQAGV
Assay: Enzymatic activity assay SIK3, RapidFire mass spectrometry (phosphorylation of CHK-peptide)
Type: biochemical
Details: RapidFire MS, inhibition of SIK3; read-out: SIK3 RF IC50
For clarity, pIC50 is expressed as the negative log10 of concentration in mol/L.

Prompt line: Can you share its pIC50? I mean this compound: COc1cc2ncn(-c3ccc(C(C)O)c(-c4cccc(Cl)c4)n3)c2cc1OC (centres unmarked)
Response line: 6.93

Prompt line: Repeat with Cc1ccc(Nc2ccc3c(c2)ncn3-c2ccc(C(C)O)c(-n3nc(C(F)(F)F)c4c3CCN(C)C4)n2)nn1 (centres unmarked)
Response line: 9.15

Prompt line: Please give the result for Cc1ccc(Nc2ccc3c(c2)ncn3-c2ccc(C(C)O)c(-c3cn(C(F)F)nc3C)n2)nn1 (centres unmarked) too.
Response line: 8.72

Prompt line: Same question, Cc1cc(C#N)nn1-c1nc(-n2cnc3cc(Nc4cccn(C)c4=O)ccc32)ccc1C(C)O (centres unmarked) this time
Response line: 7.71

Prompt line: And then `Cc1ccc(Nc2ccc3c(c2)ncn3-c2ccc(CO)c(-n3nc(C#N)cc3C)n2)nn1` , what is it?
Response line: 9.70

Prompt line: Field entry: Cc1ccc(Nc2ccc3c(c2)ncn3-c2ccc(C(C)O)c(-n3nc(C)cc3C#N)n2)nn1 (centres unmarked)
Response line: 8.59

Prompt line: Also, `Cc1ccc(Nc2cc3ncn(-c4ccc([C@H](C)O)c(-n5nc(OC(F)F)cc5C)n4)c3cc2F)nn1` please.
Response line: 9.40

Prompt line: And the next one, `COc1cc2ncn(-c3ccc([C@H](C)O)c(-c4ccc(C#N)cc4)n3)c2cc1OC` ?
Response line: 6.75
